# assay method text: protein stability index of a GFP-peptide fusion (yeast GPS) (PSI 1-4); higher = more stable; sorted into four equal gates, so the index is relative within each strain
# run parameters: doa10∆
measurement kind: protein stability index

[
  {
    "seq text": "NDHSKSANPKKTTITRV [SWI3]",
    "val": 2.9
  },
  {
    "seq text": "NDIKLFVDDTNVYRVTV [PRP8]",
    "val": 2.58
  },
  {
    "seq text": "RRRTYRAHGRINKYESS [RPL17A]",
    "val": 1.87
  },
  {
    "seq text": "SYKRIYGEYPPTKLLVS [PRE8]",
    "val": 2.87
  },
  {
    "seq text": "RLLPNGSNKAQISIIDI [YML031W/NDC1]",
    "val": 2.91
  },
  {
    "seq text": "TFDLTPEDAQLLLAANT [RPS0A]",
    "val": 2.28
  },
  {
    "seq text": "LPDEKSDAMSIDEEDKD [YCG1]",
    "val": 3.04
  }
]

---

The following sequences are shown together with reported protein stability index values.
# assay method text: protein stability index of a GFP-peptide fusion (yeast GPS) (PSI 1-4); higher = more stable; sorted into four equal gates, so the index is relative within each strain
# run parameters: ubr1∆

[
  {
    "seq text": "TKSKEQLASQLVDLKKE [RPL35A]",
    "protein stability index": 3.2
  },
  {
    "seq text": "QIVSYCSNNKNSIKNVP [SSN2]",
    "protein stability index": 1.79
  },
  {
    "seq text": "EREVFVDVKPKSPKERE [RPC25]",
    "protein stability index": 3.34
  },
  {
    "seq text": "LSISVPSDVNIDVMKSQ [SNU114]",
    "protein stability index": 2.78
  },
  {
    "seq text": "NKLRQQAIAKNNPQVVN [SNF5]",
    "protein stability index": 1.65
  },
  {
    "seq text": "NILALNLVSLLIIVTRK [YML031W/NDC1]",
    "protein stability index": 1.32
  },
  {
    "seq text": "SEIKQQINKAQILENYN [YJL039C/NUP192]",
    "protein stability index": 3.11
  },
  {
    "seq text": "HRLIATHTNLERDEQKR [SNF2]",
    "protein stability index": 3.32
  },
  {
    "seq text": "TRRKRRQGRSNRRGMLA [SNF5]",
    "protein stability index": 2.99
  },
  {
    "seq text": "LEEITQYEHLIKGIREY [YDL116W/NUP84]",
    "protein stability index": 2.81
  },
  {
    "seq text": "QWSMVAQRLQISDYQQL [SWI1]",
    "protein stability index": 1.41
  },
  {
    "seq text": "ANDFQLTIVTCKQFPKL [SRB8]",
    "protein stability index": 1.82
  },
  {
    "seq text": "LKLEYYNLLVKISLHKR [RPN5]",
    "protein stability index": 1.13
  },
  {
    "seq text": "VTIWYRAPELLLGARHY [SSN3]",
    "protein stability index": 1.9
  }
]

---

Quick reference: protein stability index of the listed items.
# assay method text: protein stability index of a GFP-peptide fusion (yeast GPS) (PSI 1-4); higher = more stable; sorted into four equal gates, so the index is relative within each strain
# run parameters: doa10∆

[
  {
    "seq text": "EEDFYTVVGNASFGKNL [DSN1]",
    "protein stability index": 1.99
  },
  {
    "seq text": "RPTEKPVGRELDPISLI [RPN13]",
    "protein stability index": 2.95
  },
  {
    "seq text": "QIENLNEVCLEKENRFE [SMC4]",
    "protein stability index": 3.27
  },
  {
    "seq text": "LAFIPNILALNLVSLLI [YML031W/NDC1]",
    "protein stability index": 1.83
  },
  {
    "seq text": "LDLKECYQFAEYLFKPQ [ARP7]",
    "protein stability index": 3.05
  },
  {
    "seq text": "NILALNLVSLLIIVTRK [YML031W/NDC1]",
    "protein stability index": 1.92
  },
  {
    "seq text": "LHCCIQLLMGDIPELSF [RPN3]",
    "protein stability index": 1.71
  }
]

---

# assay method text: protein stability index of a GFP-peptide fusion (yeast GPS) (PSI 1-4); higher = more stable; sorted into four equal gates, so the index is relative within each strain
# run parameters: doa10∆
measurement kind: protein stability index

[
  {
    "seq text": "RFKYAPGTIVLYAERVQ [RPS3]",
    "measurement kind": "protein stability index",
    "val": 1.61
  },
  {
    "seq text": "NFLLPDIFGDSELFDEW [ISW2]",
    "measurement kind": "protein stability index",
    "val": 2.25
  },
  {
    "seq text": "MLSFCPSCNNMLLITSG [RPC11]",
    "measurement kind": "protein stability index",
    "val": 1.26
  },
  {
    "seq text": "VLARISPELSLQRHLSL [RRP43]",
    "measurement kind": "protein stability index",
    "val": 2.47
  },
  {
    "seq text": "AMTIYWDDHTKKPLSMA [CDC53]",
    "measurement kind": "protein stability index",
    "val": 2.87
  },
  {
    "seq text": "YNNRSLLDFNTALKQYE [RPN6]",
    "measurement kind": "protein stability index",
    "val": 3.32
  },
  {
    "seq text": "NCKKKKKRKKKNKSAID [RMP1]",
    "measurement kind": "protein stability index",
    "val": 2.57
  },
  {
    "seq text": "AALKKTRKAARPQKLRA [RPL6A]",
    "measurement kind": "protein stability index",
    "val": 2.96
  },
  {
    "seq text": "VLESIVARTFWASKYGQ [BRR2]",
    "measurement kind": "protein stability index",
    "val": 2.74
  },
  {
    "seq text": "IQKGKFTLLDFKKQMQT [SRP54]",
    "measurement kind": "protein stability index",
    "val": 1.27
  },
  {
    "seq text": "IRTRRAAELLDKRIVIS [DIS3]",
    "measurement kind": "protein stability index",
    "val": 1.5
  },
  {
    "seq text": "ALNSMCASIPIAIIKDT [RRP46]",
    "measurement kind": "protein stability index",
    "val": 1.48
  },
  {
    "seq text": "VLIKMVKMLRDNPGYKA [SIR3]",
    "measurement kind": "protein stability index",
    "val": 3.34
  },
  {
    "seq text": "DQIAVCEISGSIEQLRN [BRN1]",
    "measurement kind": "protein stability index",
    "val": 3.27
  },
  {
    "seq text": "ASVTKEILGTAQSVGCR [RPL12A]",
    "measurement kind": "protein stability index",
    "val": 1.35
  }
]
